Hi there, I'd appreciate the recorded pKi for every entry that follows.
target: MCH-5 (Homo sapiens); experiment: Dissociation constant Ki and irreversible rate constant k3 for irreversible inhibitors (Mch5); format: biochemical; conditions: continuous assay 60 min, reaction initiated by adding enzyme to substrate-inhibitor mixture
Sequence (Q14790 217-374 limits assumed, species assumed): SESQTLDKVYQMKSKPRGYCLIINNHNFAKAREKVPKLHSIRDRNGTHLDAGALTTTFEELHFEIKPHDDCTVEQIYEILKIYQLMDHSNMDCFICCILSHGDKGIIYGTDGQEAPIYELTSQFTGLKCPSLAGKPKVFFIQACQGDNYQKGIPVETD
Sequence (Q14790 385-479 limits assumed, species assumed): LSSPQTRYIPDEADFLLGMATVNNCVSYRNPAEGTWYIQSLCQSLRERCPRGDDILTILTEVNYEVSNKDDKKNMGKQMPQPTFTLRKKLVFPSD
Answers are plain numbers, as −log10 of the molar value.

Worked cases, pKi given:
• C[C@H](NC(=O)C(=O)Nc1ccccc1I)C(=O)N[C@@H](CC(=O)O)C(=O)COC(=O)c1c(Cl)cccc1Cl [Example 75] = 8.40
• C[C@H](NC(=O)C(=O)Nc1ccccc1C(C)(C)C)C(=O)N[C@@H](CC(=O)O)C(=O)COP(=O)(c1ccccc1)c1ccccc1 [Example 47] = 8.06
• CC(C)[C@H](NC(=O)C(=O)Nc1ccccc1Cl)C(=O)N[C@@H](CC(=O)O)C(=O)COc1c(F)c(F)cc(F)c1F = 7.28
• CC(C)[C@H](NC(=O)C(=O)Nc1ccccc1C(C)(C)C)C(=O)N[C@@H](CC(=O)O)C(=O)COc1c(F)c(F)cc(F)c1F = 8.52
• CC(C)[C@H](NC(=O)C(=O)Nc1ccccc1Br)C(=O)N[C@@H](CC(=O)O)C(=O)COc1c(F)c(F)cc(F)c1F = 8.47

Attention now shifts to the item below.
IN: Enter recorded pKi with MCH-5 (Homo sapiens) for C[C@H](NC(=O)C(=O)Nc1ccccc1I)C(=O)N[C@@H](CC(=O)O)C(=O)COC(=O)c1c(Cl)cccc1Cl [Example 38] here.
OUT: 8.22
